Known CD3 binding affinity of a selection of binders
- target: T1, human CD3 (human, UniProt P07766 23-207)
- T1 construct: whole, on cells; also called CD3 on human T-cells
- T1 sequence (P07766 23-207): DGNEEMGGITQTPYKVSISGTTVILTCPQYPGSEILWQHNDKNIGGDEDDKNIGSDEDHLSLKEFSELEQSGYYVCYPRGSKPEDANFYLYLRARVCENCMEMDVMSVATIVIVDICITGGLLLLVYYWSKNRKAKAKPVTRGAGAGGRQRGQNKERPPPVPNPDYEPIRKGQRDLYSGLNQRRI
- procedure text: summary table; cell binding EC50, human PBMC
metric: CD3 binding affinity (nM)

>>> recorded_number("Fab1-HK129-LK172-BiFolate (Fab, V domains shown, pAF at LK172 (Kabat) conjugated to folate (oxime); pAF at HK129 (Kabat) conjugated to folate (oxime), From E. coli; carries two folates) VH: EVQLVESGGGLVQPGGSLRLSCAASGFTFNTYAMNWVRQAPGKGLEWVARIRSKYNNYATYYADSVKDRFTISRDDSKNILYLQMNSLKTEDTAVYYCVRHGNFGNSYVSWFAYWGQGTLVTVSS VL: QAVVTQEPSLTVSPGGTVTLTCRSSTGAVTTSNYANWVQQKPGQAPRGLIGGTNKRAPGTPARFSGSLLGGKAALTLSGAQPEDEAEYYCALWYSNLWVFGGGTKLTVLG")
2.85
>>> recorded_number("Fab1-HK129-LL157-BiFolate (Fab, V domains shown, pAF at LL157 (Kabat) conjugated to folate (oxime); pAF at HK129 (Kabat) conjugated to folate (oxime), From E. coli; carries two folates) VH: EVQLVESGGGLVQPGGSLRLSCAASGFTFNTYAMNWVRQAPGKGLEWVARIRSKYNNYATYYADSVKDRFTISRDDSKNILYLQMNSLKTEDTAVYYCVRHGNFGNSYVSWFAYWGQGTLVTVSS VL: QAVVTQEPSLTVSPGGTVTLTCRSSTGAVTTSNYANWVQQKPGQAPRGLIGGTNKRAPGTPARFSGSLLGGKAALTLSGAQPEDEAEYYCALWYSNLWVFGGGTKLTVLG")
1.93
>>> recorded_number("Fab1-HK129-Folate (Fab, V domains shown, pAF at HK129 (Kabat) conjugated to folate (oxime), From E. coli; also called Folate lead; parent control) VH: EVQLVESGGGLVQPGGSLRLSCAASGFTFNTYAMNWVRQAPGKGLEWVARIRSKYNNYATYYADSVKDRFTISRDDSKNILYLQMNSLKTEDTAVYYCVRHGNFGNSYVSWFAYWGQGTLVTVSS VL: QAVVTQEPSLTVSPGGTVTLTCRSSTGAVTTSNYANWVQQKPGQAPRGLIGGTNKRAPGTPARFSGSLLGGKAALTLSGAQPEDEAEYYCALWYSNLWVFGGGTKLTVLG")
1.69
>>> recorded_number("Fab1-HK129-20KPEG-Folate (Fab, V domains shown, pAF at HK129 (Kabat) conjugated to a bifunctional linker carrying folate and a linear 20K PEG (oxime), From E. coli) VH: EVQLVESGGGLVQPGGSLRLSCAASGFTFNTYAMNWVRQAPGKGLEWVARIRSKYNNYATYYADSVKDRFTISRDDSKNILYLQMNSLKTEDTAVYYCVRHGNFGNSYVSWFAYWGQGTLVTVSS VL: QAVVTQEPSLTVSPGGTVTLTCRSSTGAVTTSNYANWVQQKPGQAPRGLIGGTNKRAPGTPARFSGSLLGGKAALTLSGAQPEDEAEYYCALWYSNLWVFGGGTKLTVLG")
12
>>> recorded_number("Fab1-HK129-5KPEG-Folate (Fab, V domains shown, pAF at HK129 (Kabat) conjugated to a bifunctional linker carrying folate and a linear 5K PEG (oxime), From E. coli; also called Fab1-5KPEG-Folate) VH: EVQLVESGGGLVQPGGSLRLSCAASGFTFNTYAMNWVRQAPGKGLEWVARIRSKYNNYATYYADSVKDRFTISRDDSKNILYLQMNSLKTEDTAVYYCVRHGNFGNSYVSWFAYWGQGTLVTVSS VL: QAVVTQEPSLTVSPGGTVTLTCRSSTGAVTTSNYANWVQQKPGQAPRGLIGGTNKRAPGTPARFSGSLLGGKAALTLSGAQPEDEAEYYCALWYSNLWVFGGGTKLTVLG")
5

Origin of values: patent US20210317213A1
